# Tested on: human maximum recommended daily dose, FDA database
# Experimental Details: DSSTox (FDAMDD) FDA Maximum (Recommended) Daily Dose Database
# Assay Setup: TherapeuticCategory: antiosteoporotic; antiestrogen; stronger effect = lower value
Measured Quantity: maximum recommended daily dose (mmol/kg-bw/day)
Respond using a number only.

For O=C(c1ccc(OCCN2CCCCC2)cc1)c1c(-c2ccc(O)cc2)sc2cc(O)ccc12 on human maximum recommended daily dose, FDA database, measured maximum recommended daily dose (mmol/kg-bw/day) was 0.0211

###

# maximum recommended daily dose (mmol/kg-bw/day) listing for each entry below
# Tested on: human maximum recommended daily dose, FDA database
# Experimental Details: DSSTox (FDAMDD) FDA Maximum (Recommended) Daily Dose Database
# Assay Setup: TherapeuticCategory: antidepressant; stronger effect = lower value
# Text: The Food and Drug Administration (FDA) Center for Drug Evaluation and Research, Office of Pharmaceutical Science, Informatics and Computational Safety Analysis Staff's Maximum Recommended Daily Dose (FDAMDD) database contains values for over 1200 pharmaceuticals listed in Martindale: The Extra Pharmacopoeia (1973, 1983, and 1993) and The Physicians' Desk Reference (1995 and 1999). […]
Respond using a number only.

Compound	Experimental Result
CN(C)CCO	0.168
CN(C)CCCN1c2ccccc2C(C)(C)c2ccccc21	0.034
CN1CCN2c3ncccc3Cc3ccccc3C2C1 (stereo not drawn)	0.00283
CN(C)CCCN1c2ccccc2CCc2ccc(Cl)cc21	0.0132
CC(C)(O)CC(C)(O)c1ccc(Cl)cc1 (stereo not drawn)	0.0437
CN1CCN2c3ccccc3Cc3ccccc3C2C1 (stereo not drawn)	0.00567

Form field maximum recommended daily dose (mmol/kg-bw/day), entry CN(CCCN1c2ccccc2CCc2ccccc21)CC(=O)c1ccc(Cl)cc1 : 0.00835

Form field maximum recommended daily dose (mmol/kg-bw/day), entry CC(NC(C)(C)C)C(=O)c1cccc(Cl)c1 (stereo not drawn) : 0.0313

Form field maximum recommended daily dose (mmol/kg-bw/day), entry CCN1CCCC1CNC(=O)c1cc(S(=O)(=O)CC)ccc1OC (stereo not drawn) : 0.0564

###

# System: human maximum recommended daily dose, FDA database
# Experimental Details: DSSTox (FDAMDD) FDA Maximum (Recommended) Daily Dose Database
# Assay Setup: TherapeuticCategory: andrenergic; nasal decongestant; stronger effect = lower value
Measured Quantity: maximum recommended daily dose (mmol/kg-bw/day)
Respond using a number only.

Form field maximum recommended daily dose (mmol/kg-bw/day), entry CNC(C)CC1CCCCC1 (stereo unspecified) : 0.0161

###

# Test system: human maximum recommended daily dose, FDA database
# Experimental Details: DSSTox (FDAMDD) FDA Maximum (Recommended) Daily Dose Database
# Assay Setup: TherapeuticCategory: skeletal muscle relaxant; diagnostic aid; stronger effect = lower value
Measured Quantity: maximum recommended daily dose (mmol/kg-bw/day)
Respond using a number only.

Form field maximum recommended daily dose (mmol/kg-bw/day), entry COc1cc2c3cc1Oc1cc(ccc1O)C[C@@H]1c4c(cc(OC)c(O)c4Oc4ccc(cc4)C[C@@H]3N(C)CC2)CC[N+]1(C)C : 0.000979

###

# Test system: human maximum recommended daily dose, FDA database
# Experimental Details: DSSTox (FDAMDD) FDA Maximum (Recommended) Daily Dose Database
# Assay Setup: TherapeuticCategory: carbonic anhydrase inhibitor; stronger effect = lower value
Measured Quantity: maximum recommended daily dose (mmol/kg-bw/day)
Respond using a number only.

Form field maximum recommended daily dose (mmol/kg-bw/day), entry NS(=O)(=O)c1cc(Cl)c(Cl)c(S(N)(=O)=O)c1 : 0.0109

###

# System: human maximum recommended daily dose, FDA database
# Experimental Details: DSSTox (FDAMDD) FDA Maximum (Recommended) Daily Dose Database
# Assay Setup: TherapeuticCategory: Ca channel blocker; stronger effect = lower value
Measured Quantity: maximum recommended daily dose (mmol/kg-bw/day)
Respond using a number only.

Form field maximum recommended daily dose (mmol/kg-bw/day), entry COc1ccc2c(c1OC)CN1CCc3cc4c(cc3C1C2)OCO4 (stereo unspecified) : 0.0981

###

# Test system: human maximum recommended daily dose, FDA database
# Experimental Details: DSSTox (FDAMDD) FDA Maximum (Recommended) Daily Dose Database
# Assay Setup: TherapeuticCategory: none; stronger effect = lower value
Measured Quantity: maximum recommended daily dose (mmol/kg-bw/day)
Respond using a number only.

Molecule	Experimental Result
O=P(O)(O)OCC(O)CO (stereo not drawn)	0.388
O=P(O)(O)OC(CO)CO	0.388

Please find the next molecule below.
For N[C@@H](CCC(=O)N[C@@H](CS)C(=O)NCC(=O)O)C(=O)O on human maximum recommended daily dose, FDA database, measured maximum recommended daily dose (mmol/kg-bw/day) was 0.0163

###

# System: human maximum recommended daily dose, FDA database
# Experimental Details: DSSTox (FDAMDD) FDA Maximum (Recommended) Daily Dose Database
# Assay Setup: TherapeuticCategory: analgesic; anticonvulsant; stronger effect = lower value
Measured Quantity: maximum recommended daily dose (mmol/kg-bw/day)
Respond using a number only.

Form field maximum recommended daily dose (mmol/kg-bw/day), entry NC(=O)N1c2ccccc2C=Cc2ccccc21 : 0.113

###

# Tested on: human maximum recommended daily dose, FDA database
# Experimental Details: DSSTox (FDAMDD) FDA Maximum (Recommended) Daily Dose Database
# Assay Setup: TherapeuticCategory: antineoplastic; stronger effect = lower value
# maximum recommended daily dose (mmol/kg-bw/day) listing for each entry below
Respond using a number only.

Past entries and their recorded results:
Compound	Experimental Result
CS(=O)(=O)OCCCCOS(C)(=O)=O	0.00054
S=P(N1CC1)(N1CC1)N1CC1	0.00211
CC(=O)O[C@H]1C(=O)[C@@]2(C)[C@H]([C@H](OC(=O)c3ccccc3)[C@]3(O)C[C@H](OC(=O)[C@H](O)[C@@H](NC(=O)c4ccccc4)c4ccccc4)C(C)=C1C3(C)C)[C@]1(OC(C)=O)CO[C@@H]1C[C@@H]2O	0.00554

Form field maximum recommended daily dose (mmol/kg-bw/day), entry CC(=O)[C@]1(O)Cc2c(O)c3c(c(O)c2[C@@H](O[C@H]2C[C@H](N)[C@H](O)[C@H](C)O2)C1)C(=O)c1c(O)cccc1C3=O : 0.00132

Form field maximum recommended daily dose (mmol/kg-bw/day), entry C[C@H]1CC2=CC(=O)CC[C@]2(C)[C@H]2CC[C@@]3(C)[C@@H](CC[C@]3(C)O)[C@H]12 : 0.0158

Form field maximum recommended daily dose (mmol/kg-bw/day), entry O=C(CCBr)N1CCN(C(=O)CCBr)CC1 : 0.00843

Form field maximum recommended daily dose (mmol/kg-bw/day), entry N[C@@H](Cc1ccc(N(CCCl)CCCl)cc1)C(=O)O : 0.000328

Form field maximum recommended daily dose (mmol/kg-bw/day), entry N#Cc1ccc(C(c2ccc(C#N)cc2)n2cncn2)cc1 : 0.000146

Form field maximum recommended daily dose (mmol/kg-bw/day), entry CCNNC(=O)[C@@H]1[C@H](c2cc(OC)c(OC)c(OC)c2)c2cc3c(cc2[C@H](O)[C@H]1CO)OCO3 : 0.00702

Form field maximum recommended daily dose (mmol/kg-bw/day), entry O=P1(N(CCCl)CCCl)NCCCO1 (centres undefined) : 0.0192

Form field maximum recommended daily dose (mmol/kg-bw/day), entry C[C@H]1O[C@@H](n2cc(F)c(=O)[nH]c2=O)[C@H](O)[C@@H]1O : 0.0812

Form field maximum recommended daily dose (mmol/kg-bw/day), entry CO[C@H](C(=O)[C@@H](O)[C@@H](C)O)C1Cc2cc3cc(O[C@H]4C[C@@H](O[C@H]5C[C@@H](O)[C@H](O)[C@@H](C)O5)[C@@H](O)[C@@H](C)O4)c(C)c(O)c3c(O)c2C(=O)[C@H]1O[C@H]1C[C@@H](O[C@H]2C[C@@H](O[C@H]3C[C@](C)(O)[C@H](O)[C@@H](C)O3)[C@H](O)[C@@H](C)O2)[C@H](O)[C@@H](C)O1 (some centres undefined) : 2.76e-05

###

# Test system: human maximum recommended daily dose, FDA database
# Experimental Details: DSSTox (FDAMDD) FDA Maximum (Recommended) Daily Dose Database
# Assay Setup: TherapeuticCategory: anesthetic; stronger effect = lower value
# maximum recommended daily dose (mmol/kg-bw/day) listing for each entry below
Respond using a number only.

Molecule	System Tested	Experimental Result
C=CCC1(C(C)C#CCC)C(=O)NC(=O)N(C)C1=O (stereo not drawn)	human maximum recommended daily dose, FDA database	0.00762
Cc1ncc2n1-c1ccc(Cl)cc1C(c1ccccc1F)=NC2	human maximum recommended daily dose, FDA database	0.000256

Please find the next molecule below.
For CC(C)c1cccc(C(C)C)c1O on human maximum recommended daily dose, FDA database, measured maximum recommended daily dose (mmol/kg-bw/day) was 0.014

###

# Tested on: human maximum recommended daily dose, FDA database
# Experimental Details: DSSTox (FDAMDD) FDA Maximum (Recommended) Daily Dose Database
# Assay Setup: TherapeuticCategory: antibacterial; stronger effect = lower value
// assign T if maximum recommended daily dose (mmol/kg-bw/day) falls strictly below 0.1, else F (ties count as F)

Please review the entries below; each comes with its answer.
Structure	Assigned Category
C[C@]1(Cn2ccnn2)[C@H](C(=O)O)N2C(=O)C[C@H]2S1(=O)=O	T
C[C@@H](O)[C@H]1C(=O)N2C(C(=O)O)=C(SCCN=CN)C[C@H]12	F
N[C@@H]1[C@@H](O)[C@@H](O[C@@H]2[C@@H](O)[C@H](O[C@H]3O[C@H](CO)[C@@H](O)[C@H](O)[C@H]3N)[C@@H](N)C[C@H]2N)O[C@H](CO)[C@H]1O	T

Confirm or reject: maximum recommended daily dose (mmol/kg-bw/day) of CO[C@@]1(NC(=O)Cc2cccs2)C(=O)N2C(C(=O)O)=C(COC(N)=O)CS[C@@H]21 lies strictly below 0.1
F

Confirm or reject: maximum recommended daily dose (mmol/kg-bw/day) of O=S(O)CNc1ccc(S(=O)(=O)c2ccc(NCS(=O)O)cc2)cc1 lies strictly below 0.1
T
